# procedure text: Immunotoxin (HA22) sensitization/mitigation study. Vehicle arm (PBS) (AID 1159510)
# settings: cancer cells viability with PBS vehicle (HA22 study); series mostly up to 46.1 µM
Active and inactive are the calls of the source. How the calls were made is not given here.
Answer with one of the outcomes given here: class 1 = active, class 0 = inactive

Lookup: Could you check what this test reported for `CN1CCN(CCOc2cc(OC3CCOCC3)c3c(Nc4c(Cl)ccc5c4OCO5)ncnc3c2)CC1` ?
Found: class 1

Lookup: Could you check what this test reported for `CCOc1ccc(Nc2nc(-c3c(C)nc4ccccn34)cs2)cc1` ?
Found: class 1

Lookup: Could you check what this test reported for O=C(O)CCC1CCC(c2cc(F)ccc2F)(S(=O)(=O)c2ccc(Cl)cc2)CC1 (stereo not drawn) ?
Found: class 0

Lookup: Could you check what this test reported for O=C1C(CCC(O)c2ccc(F)cc2)C(c2ccc(O)cc2)N1c1ccc(F)cc1 (stereo not drawn) ?
Found: class 0

Lookup: Could you check what this test reported for `CNC(=O)c1ccc(N2C(=S)N(c3ccc(C#N)c(C(F)(F)F)c3)C(=O)C2(C)C)cc1F` ?
Found: class 0

Lookup: Could you check what this test reported for `C[C@]1(CO)CN(c2cc(C(=O)Nc3ccc4c(c3)-c3c(c(C(N)=O)nn3-c3ccc(F)cc3)CC4)c(Cl)cn2)C[C@@]1(C)CO` ?
Found: class 1

* * *

# procedure text: Quantitative High-Throughput drug screen in 47 multiple myeloma cell lines against the NCATS MIPE library collection: OCIMY5_PLB cell viability assay (AID 1918988); further: nearly all actives have a fitted effect of over 65% in size
# settings: OCI-MY5 myeloma viability, ATP luminescence, 48 h; series mostly up to 45.8 µM
Results filed as inconclusive are left out. Calls of active or inactive are those of the source. The call rests on the fitted dose curve; in most records, active means well fitted cell-killing curve with a large enough effect; inconclusive means small, poorly fitted or top-dose-only effect, or effect the other way; inactive means no such curve, though single readings can be large or run the other way.
Answer with one of the outcomes given here: label 1 = active, label 0 = inactive

Lookup: Could you check what this test reported for `O=[N+]([O-])c1ncc[nH]1` ?
Found: label 1

Lookup: Could you check what this test reported for `CCOC(=O)c1cncn1[C@H](C)c1ccccc1` ?
Found: label 0

Lookup: Could you check what this test reported for `c1ccc(CCCN2CCN(CCOC(c3ccccc3)c3ccccc3)CC2)cc1` ?
Found: label 1

Lookup: Could you check what this test reported for `COc1ccc(C(=O)c2c(C)n(CCN3CCOCC3)c3cc(I)ccc23)cc1` ?
Found: label 1

Lookup: Could you check what this test reported for `CN[C@@H]1Cc2cccc3[nH]c(=O)n(c23)C1` ?
Found: label 1

Lookup: Could you check what this test reported for C=C[C@@H]1CN2CCC1C[C@@H]2[C@@H](O)c1ccnc2ccccc12 (stereo not given in full) ?
Found: label 1

Lookup: Could you check what this test reported for `O=C1C=CC[C@@H]2[C@H]3CCCN4CCC[C@@H](CN12)[C@@H]34` ?
Found: label 1

Lookup: Could you check what this test reported for `N#C[C@H](O[C@@H]1O[C@H](CO[C@@H]2O[C@H](CO)[C@H](O)[C@H](O)[C@H]2O)[C@H](O)[C@H](O)[C@H]1O)c1ccccc1` ?
Found: label 1

Lookup: Could you check what this test reported for `Cc1ccccc1-n1c(Cn2cnc3c(N)ncnc32)nc2cccc(C)c2c1=O` ?
Found: label 1

Lookup: Could you check what this test reported for `C[C@]12CC[C@H]3[C@@H](CCC4=CC(=O)CC[C@@]43C)[C@H]1CC[C@H]2OC(=O)CCC1CCCC1` ?
Found: label 1

* * *

# procedure text: MultiTox-Fluor Cytotoxicity Assay - LYMP1-003 - Dead Cells (AID 961);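 further: cells exposed to compound for 16 h at 37 °C; 0% = DMSO and 100% = tetraoctylammonium bromide; nearly all actives have a fitted effect of over 70% in size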
# settings: LYMP1-003 lymphoblastoid cells, dead-cell protease fluorescence; series mostly up to 92.2 µM
Activity calls are given as the source filed them. Calls follow the shape of the dose curve; as a rule, active = well fitted cell-killing curve with a large enough effect; inconclusive = small, poorly fitted or top-dose-only effect, or effect the other way; inactive = flat fitted curve, though single readings scatter.
reported endpoint: outcome

# annotated cases, reported outcome shown
{"structure smiles string": "O=C(O)COc1ccccc1", "outcome": "inactive"}
{"structure smiles string": "C1CCC(NC2CCCCC2)CC1", "outcome": "inactive"}
{"structure smiles string": "CN(C)[C@@H]1C(=O)C(C(N)=O)=C(O)[C@@]2(O)C(=O)C3=C(O)c4c(O)cccc4[C@@](C)(O)[C@H]3[C@H](O)[C@@H]12", "outcome": "inactive"}
{"structure smiles string": "Cc1cc(O)ccc1Cl", "outcome": "inactive"}
{"structure smiles string": "CC(C)(O)C(=O)Nc1ccc([N+](=O)[O-])c(C(F)(F)F)c1", "outcome": "inactive"}

outcome measured on `CCCCOC(=O)c1ccccc1C(=O)OCc1ccccc1` = inactive

* * *

# procedure text: qHTS of pediatric cancer cell lines to identify multiple opportunities for drug repurposing: Primary screen for SJ-GBM2 cells (AID 1347091); further: potency means the concentration at half of the fitted maximal effect
# settings: SJ-GBM2 viability, CellTiter-Glo luminescence, 48 h; series mostly up to 46 µM
Results filed as inconclusive are left out. Active and inactive are the calls of the source. Calls follow the shape of the dose curve; as a rule, active = well fitted cell-killing curve with a large enough effect; inconclusive = small, poorly fitted or top-dose-only effect; inactive = no such curve, though single readings can be large or run the other way.
reported endpoint: Potency

# annotated cases, reported Potency shown
{"compound": "C[C@]12CC[C@H]3[C@@H](CCC4=CC(=O)CC[C@@]43C)[C@H]1CC[C@H]2OC(=O)CCC1CCCC1", "readout value": "inactive"}
{"compound": "O=c1cccc2n1CC1CNC[C@H]2C1", "readout value": "5900 nM (active)"}
{"compound": "C[C@H]1CCCC=CC2C[C@H](O)C[C@@H]2[C@H](O)C=CC(=O)O1 (stereo partly drawn)", "readout value": "1 nM (active)"}
{"compound": "Nc1ccc(Cl)cc1", "readout value": "inactive"}
{"compound": "CC1=NN=C(c2ccc(N)cc2)c2cc3c(cc2C1)OCO3", "readout value": "inactive"}
{"compound": "Cc1[nH]nc2ccc(-c3cncc(OC[C@@H](N)Cc4c[nH]c5ccccc45)c3)cc12", "readout value": "1050 nM (active)"}
{"compound": "CCCCC(CC)COC(=O)c1ccccc1C(=O)OCC(CC)CCCC (stereo not drawn)", "readout value": "inactive"}
{"compound": "C#C[C@]1(O)C=C[C@@H]2[C@@H]3CCC4=CC(=O)CC[C@@H]4[C@H]3CC[C@@]21CC", "readout value": "inactive"}
{"compound": "Cc1ccc(Cl)c(O)c1", "readout value": "inactive"}
{"compound": "NC1CC1c1ccccc1 (stereo not drawn)", "readout value": "inactive"}

Next, consider the following compound.
Potency measured on COc1ccc2c(c1)CN(C)CC2c1ccc(Cl)c(Cl)c1 (stereo not drawn) = 18700 nM (active)

* * *

# procedure text: Quantitative High-Throughput drug screen in 47 multiple myeloma cell lines against the NCATS MIPE library collection: XG1_PLB cell viability assay (AID 1919866); further: nearly all actives have a fitted effect of over 35% in size
# settings: CellTiter-Glo ATP, 48 h; series mostly up to 45.8 µM
Inconclusive results are not listed. Calls of active or inactive are those of the source. The call rests on the fitted dose curve; in most records, active means well fitted cell-killing curve with a large enough effect; inconclusive means small, poorly fitted or top-dose-only effect, or effect the other way; inactive means no such curve, though single readings can be large or run the other way.
Answer with one of the outcomes given here: active, inactive

Lookup: Could you check what this test reported for `CCN1CCN(C(=O)Cc2ccc(Nc3ncc(F)c(Nc4ccc(C(=O)Nc5ccccc5Cl)cc4)n3)cc2)CC1` ?
Found: active

Lookup: Could you check what this test reported for CO[C@H]1CCC(O[C@H]2C[C@H]([C@]3(C)CC[C@]4(C[C@H](O)[C@@H](C)[C@@H]([C@@H](C)C=C(C)C(=O)[C@H](C)C[C@H](C)C(=O)O)O4)O3)O[C@]3(O[C@@H]([C@H]4O[C@@](O)(CO)[C@H](C)C[C@H]4C)C[C@H]3C)[C@H]2C)O[C@H]1C (stereo not given in full) ?
Found: active

Lookup: Could you check what this test reported for `CCCN1CCO[C@@H]2c3cc(O)ccc3OC[C@@H]21` ?
Found: inactive

Lookup: Could you check what this test reported for `CC[C@@H]1[C@@H](C)O[C@@](O)([C@@H](C)[C@H](O)[C@H](C)[C@H]2OC(=O)C=CC=C[C@@H](C)[C@@H]([C@@H](C)[C@@H](O)[C@H](C)[C@@]3(O)C[C@H](O[C@H]4C[C@H](O)[C@H](O)[C@H](C)O4)[C@H](CC)[C@@H](C)O3)OC(=O)C=CC=C[C@@H]2C)C[C@H]1O[C@H]1C[C@H](O)[C@H](O)[C@H](C)O1` ?
Found: active

Lookup: Could you check what this test reported for `C[C@]12CC[C@H](O)CC1=CC[C@H]1[C@H]3CCC(=O)[C@@]3(C)CC[C@@H]12` ?
Found: active

* * *

# procedure text: Quantitative High-Throughput drug screen in 47 multiple myeloma cell lines against the NCATS MIPE library collection: XG1_PLB cell viability assay (AID 1919866); further: nearly all actives have a fitted effect of over 35% in size; further: potency means the concentration at half of the fitted maximal effect
# settings: CellTiter-Glo ATP, 48 h; series mostly up to 45.8 µM
Results filed as inconclusive are left out. Activity calls are given as the source filed them. Calls come from the whole dose curve; as a rule, active = well fitted cell-killing curve with a large enough effect; inconclusive = small, poorly fitted or top-dose-only effect, or effect the other way; inactive = no such curve, though single readings can be large or run the other way.
reported endpoint: Potency

{"molecule": "C[C@]12CCC(=O)C(O)=C1CC[C@@H]1[C@H]3CCC(=O)[C@@]3(C)CC[C@@H]12", "readout value": "inactive"}
{"molecule": "C[C@H]1CCCC=CC2C[C@H](O)C[C@@H]2[C@H](O)C=CC(=O)O1 (some centres undefined)", "readout value": "inactive"}
{"molecule": "O=c1[nH]c2ccc(Cl)cc2c(N[C@@H]2CN3CCC2CC3)c1-c1nc2ccccc2[nH]1", "readout value": "264 nM (active)"}
{"molecule": "COc1ccc(C(=O)c2c(C)n(CCN3CCOCC3)c3cc(I)ccc23)cc1", "readout value": "7430 nM (active)"}
{"molecule": "CC(C)[C@H]1C(=O)N[C@H](CO)Cc2c[nH]c3cccc(c23)N1C", "readout value": "inactive"}
{"molecule": "CC1=C(O)C(=O)C=C2C1=CC=C1[C@@]2(C)CC[C@@]2(C)[C@@H]3C[C@](C)(C(=O)O)CC[C@]3(C)CC[C@]12C", "readout value": "590 nM (active)"}
{"molecule": "O=C1CCC[C@@H]2[C@H]3CCCN4CCC[C@@H](CN12)[C@@H]34", "readout value": "inactive"}
{"molecule": "Clc1ccccc1C(c1ccccc1)(c1ccccc1)n1cccn1", "readout value": "inactive"}

Next, consider the following molecule.
Potency measured on `O=C(N[C@@H](COc1ccc2[nH]c(=O)[nH]c2c1)c1ccccc1)c1cccn(Cc2ccc(F)c(F)c2)c1=O` = 5260 nM (active)
